Data provenance: patent US6927226B2

Listing of recorded melting point by entry.
Structures can show the parent of a compound that is named as a salt.
measured-attribute: melting point

>>> readout_value("CCc1nc2c3c(ccc2[nH]1)OCC(CN1CC=C(c2c[nH]c4ccccc24)CC1)O3 (stereo not shown) (as salt: fumarate)")
"231 to 232 °C"
>>> readout_value("Cc1nc2c3c(ccc2[nH]1)OCC(CN1CC=C(c2c[nH]c4ccccc24)CC1)O3 (stereo not shown) (as salt: fumarate) (hydrate or solvate)")
"219 to 222 °C"
>>> readout_value("FC(F)(F)C(F)(F)c1nc2c3c(ccc2[nH]1)OCC(CN1CC=C(c2c[nH]c4ccccc24)CC1)O3 (stereo not shown) (as salt: fumarate)")
"238 to 239 °C"
>>> readout_value("Fc1ccc2c(C3=CCN(CC4COc5ccc6[nH]c(C(F)(F)F)nc6c5O4)CC3)c[nH]c2c1 (stereo not shown) (as salt: fumarate) (hydrate or solvate)")
"215 to 220 °C"
>>> readout_value("Fc1ccc2[nH]cc(C3=CCN(CC4COc5ccc6[nH]c(C(F)(F)F)nc6c5O4)CC3)c2c1 (stereo not shown) (as salt: fumarate)")
"236 to 238 °C"
>>> readout_value("FC(F)(F)c1nc2c3c(ccc2[nH]1)OCC(CN1CC=C(c2c[nH]c4ccccc24)CC1)O3 (stereo not shown) (as salt: fumarate)")
"231 to 233 °C"
>>> readout_value("Fc1cccc2c(C3=CCN(CC4COc5ccc6[nH]c(C(F)(F)F)nc6c5O4)CC3)c[nH]c12 (stereo not shown) (as salt: fumarate)")
"239 to 240 °C"

###

Listing of recorded Ki by entry.
- study-target: human 5-HT1A receptors (Homo sapiens)
- Construct: expressed in transfected cells; host or cells: CHO cells, stably transfected
- Sequence (P08908 whole entry): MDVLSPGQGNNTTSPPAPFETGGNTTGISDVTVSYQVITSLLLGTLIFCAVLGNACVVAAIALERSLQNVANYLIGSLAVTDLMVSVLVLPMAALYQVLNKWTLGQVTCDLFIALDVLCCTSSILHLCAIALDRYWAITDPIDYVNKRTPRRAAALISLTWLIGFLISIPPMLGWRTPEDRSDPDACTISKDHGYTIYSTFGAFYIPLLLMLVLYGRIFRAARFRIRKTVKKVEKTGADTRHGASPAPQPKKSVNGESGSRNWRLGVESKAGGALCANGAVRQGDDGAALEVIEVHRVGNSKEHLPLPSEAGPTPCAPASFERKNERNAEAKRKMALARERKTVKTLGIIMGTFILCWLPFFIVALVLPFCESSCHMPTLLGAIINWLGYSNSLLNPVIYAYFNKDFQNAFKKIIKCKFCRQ
- measurement-protocol: [3H] 8-OHDPAT displacement from the 5-HT1A receptor (transfected CHO cells)
- Assay type: binding
measured-attribute: Ki (nM)

>>> readout_value("FC(F)(F)c1nc2c3c(ccc2[nH]1)OCC(CN1CC=C(c2c[nH]c4ccccc24)CC1)O3 (stereo not drawn)")
1.76
>>> readout_value("Cc1nc2c3c(ccc2[nH]1)OCC(CN1CC=C(c2c[nH]c4ccccc24)CC1)O3 (stereo not drawn)")
1.58
>>> readout_value("CCc1nc2c3c(ccc2[nH]1)OCC(CN1CC=C(c2c[nH]c4ccccc24)CC1)O3 (stereo not drawn)")
1.34
>>> readout_value("Fc1ccc2c(C3=CCN(CC4COc5ccc6[nH]c(C(F)(F)F)nc6c5O4)CC3)c[nH]c2c1 (stereo not drawn)")
2.67
>>> readout_value("Fc1cccc2c(C3=CCN(CC4COc5ccc6[nH]c(C(F)(F)F)nc6c5O4)CC3)c[nH]c12 (stereo not drawn)")
0.81
>>> readout_value("Fc1ccc2[nH]cc(C3=CCN(CC4COc5ccc6[nH]c(C(F)(F)F)nc6c5O4)CC3)c2c1 (stereo not drawn)")
3.07

###

- study-target: serotonin transporter (Rattus norvegicus)
- Construct: displace ^3H-paroxetine from male rat frontal cortical membranes; from tissue; host or cells: male rat frontal cortex membranes
- Sequence (P31652 whole entry): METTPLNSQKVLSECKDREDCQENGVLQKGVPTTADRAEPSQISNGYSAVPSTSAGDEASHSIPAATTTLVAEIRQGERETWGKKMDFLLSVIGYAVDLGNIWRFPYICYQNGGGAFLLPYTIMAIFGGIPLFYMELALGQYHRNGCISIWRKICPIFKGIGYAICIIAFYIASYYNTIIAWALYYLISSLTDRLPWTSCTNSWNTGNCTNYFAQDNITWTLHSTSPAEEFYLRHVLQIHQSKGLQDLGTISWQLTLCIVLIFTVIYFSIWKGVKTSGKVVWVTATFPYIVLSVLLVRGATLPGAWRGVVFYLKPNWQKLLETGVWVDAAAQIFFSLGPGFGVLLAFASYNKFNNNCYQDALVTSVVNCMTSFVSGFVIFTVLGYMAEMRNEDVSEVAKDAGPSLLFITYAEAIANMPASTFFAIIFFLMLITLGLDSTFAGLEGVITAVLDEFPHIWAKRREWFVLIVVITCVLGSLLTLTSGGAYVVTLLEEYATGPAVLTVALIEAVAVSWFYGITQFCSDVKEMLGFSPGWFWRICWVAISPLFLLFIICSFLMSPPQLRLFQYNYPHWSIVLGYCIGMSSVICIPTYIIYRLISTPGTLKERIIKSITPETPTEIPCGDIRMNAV
- measurement-protocol: 3H-paroxetine displacement, affinity for the serotonin transporter
- Format: binding
# if measured Ki < 700 pM: Yes  # else: No

>>> class("Fc1ccc2c(C3=CCN(CC4COc5ccc6[nH]c(C(F)(F)F)nc6c5O4)CC3)c[nH]c2c1 (stereo not drawn) [Example 3]")
"No"
>>> class("CCc1nc2c3c(ccc2[nH]1)OCC(CN1CC=C(c2c[nH]c4ccccc24)CC1)O3 (stereo not drawn) [Example 6]")
"Yes"
>>> class("Cc1nc2c3c(ccc2[nH]1)OCC(CN1CC=C(c2c[nH]c4ccccc24)CC1)O3 (stereo not drawn) [Example 4]")
"Yes"
>>> class("Fc1ccc2[nH]cc(C3=CCN(CC4COc5ccc6[nH]c(C(F)(F)F)nc6c5O4)CC3)c2c1 (stereo not drawn) [Example 1]")
"No"
>>> class("FC(F)(F)c1nc2c3c(ccc2[nH]1)OCC(CN1CC=C(c2c[nH]c4ccccc24)CC1)O3 (stereo not drawn) [Example 2]")
"No"
